Test: Fish toxicity (carp), Japanese protocol
Type: in vivo
Details: in vivo; carp (7 cm), 48 hours; read-out: TLM, Median Tolerance Limit (LC50)
measure name: LC50 at 48 h (µg/mL)
State just the number; it will be interpreted in µg/mL.

Please list LC50 at 48 h recorded for the compound CCCCOc1cccc(CC)c1N(C)C(=O)CCl
3.2

* * *

System: Cyperus serotinus
Assay: Field transplant rice test, applied 0 DAT, CS
Assay type: in vivo
Conditions: 0 h, 0.375 Kg/Ha, 6 WAT, read-out: Percent Inhibition, CS
Parameter inhibition at 375 g/ha: see the listing below.
State just the number; it will be interpreted in %.

Please list inhibition at 375 g/ha recorded for the compound CCCCOCN(C(=O)CCl)c1c(CC)cccc1CC
63

Please list inhibition at 375 g/ha recorded for the compound CCCCOCN(C(=O)CCl)c1c(C)cccc1C(C)(C)C
72

Please list inhibition at 375 g/ha recorded for the compound CCCOCCN(C(=O)CCl)c1c(CC)cccc1CC
33

Please list inhibition at 375 g/ha recorded for the compound CCCCOCCN(C(=O)CCl)c1c(CC)cccc1CC
3

Please list inhibition at 375 g/ha recorded for the compound CCCCOc1cccc(CC)c1N(C)C(=O)CCl
50

* * *

System: Echinochloa crus-galli
Assay: Field transplant rice test, applied 0 DAT, EC
Type: in vivo
Conditions: 0 h, 0.375 Kg/Ha, 4 WAT, read-out: Percent Inhibition, EC
measure name: inhibition at 375 g/ha (%)
State just the number; it will be interpreted in %.

In the examples that follow, each entry is paired with its recorded inhibition at 375 g/ha.
compound="CCCCOCCN(C(=O)CCl)c1c(CC)cccc1CC [Compound B]" measure_name="inhibition at 375 g/ha" reported_result=68
compound="CCCCOc1cccc(CC)c1N(C)C(=O)CCl [Example 1]" measure_name="inhibition at 375 g/ha" reported_result=100
compound="CCCCOCN(C(=O)CCl)c1c(C)cccc1C(C)(C)C [Compound C]" measure_name="inhibition at 375 g/ha" reported_result=100
compound="CCCCOCN(C(=O)CCl)c1c(CC)cccc1CC [Compound A]" measure_name="inhibition at 375 g/ha" reported_result=72

Please list inhibition at 375 g/ha recorded for the compound CCCOCCN(C(=O)CCl)c1c(CC)cccc1CC [Compound D]
88

* * *

Tested on: Monochoria vaginalis
Test: Field transplant rice test, applied 9 DAT, MV
Assay type: in vivo
Conditions: Pontederia vaginalis, 216 h, 0.375 Kg/Ha, 3 WAT, read-out: Percent Inhibition, MV
measure name: inhibition at 375 g/ha (%)
State just the number; it will be interpreted in %.

In the examples that follow, each entry is paired with its recorded inhibition at 375 g/ha.
compound="CCCCOc1cccc(CC)c1N(C)C(=O)CCl [Example 1]" measure_name="inhibition at 375 g/ha" reported_result=100
compound="CCCOCCN(C(=O)CCl)c1c(CC)cccc1CC [Compound D]" measure_name="inhibition at 375 g/ha" reported_result=95
compound="CCCCOCN(C(=O)CCl)c1c(CC)cccc1CC [Compound A]" measure_name="inhibition at 375 g/ha" reported_result=90
compound="CCCCOCN(C(=O)CCl)c1c(C)cccc1C(C)(C)C [Compound C]" measure_name="inhibition at 375 g/ha" reported_result=97

Continue with the compound presented below.
Please list inhibition at 375 g/ha recorded for the compound CCCCOCCN(C(=O)CCl)c1c(CC)cccc1CC [Compound B]
100

* * *

Test system: Rice
Assay: Field transplant rice test, applied 0 DAT, rice injury
Type: in vivo
Conditions: Oryza sativa, 0 h, 0.75 Kg/Ha, 2 WAT, read-out: Percent Inhibition, Rice
Protocol: In further comparative tests, a preferred compound of this invention (Example 1) was tested in the field with prior art Compounds A-D. These tests were conducted under conditions reflecting herbicide application times generally favorable to all herbicides in the test. The timing of application of herbicides to transplant rice is very important, whether, as in some instances, prior to transplanting the rice; in other instances, at the time of transplanting or else after transplanting. […]
measure name: inhibition at 750 g/ha (%)
State just the number; it will be interpreted in %.

In the examples that follow, each entry is paired with its recorded inhibition at 750 g/ha.
structure_notation=CCCCOCN(C(=O)CCl)c1c(CC)cccc1CC unit_info=% reported_result=2
structure_notation=CCCCOCN(C(=O)CCl)c1c(C)cccc1C(C)(C)C unit_info=% reported_result=2
structure_notation=CCCCOCCN(C(=O)CCl)c1c(CC)cccc1CC unit_info=% reported_result=3
structure_notation=CCCOCCN(C(=O)CCl)c1c(CC)cccc1CC unit_info=% reported_result=2

Please list inhibition at 750 g/ha recorded for the molecule CCCCOc1cccc(CC)c1N(C)C(=O)CCl
3

* * *

Parameter inhibition at 750 g/ha: see the listing below.
System: Monochoria vaginalis
Experiment: Field transplant rice test, applied 0 DAT, MV
Format: in vivo
Settings: Pontederia vaginalis, 0 h, 0.75 Kg/Ha, 2 WAT, read-out: Percent Inhibition, MV
State the value, then name its unit.

molecule="CCCCOCN(C(=O)CCl)c1c(C)cccc1C(C)(C)C [Compound C]" reported_result=100%
molecule="CCCCOCN(C(=O)CCl)c1c(CC)cccc1CC [Compound A]" reported_result=100%
molecule="CCCCOCCN(C(=O)CCl)c1c(CC)cccc1CC [Compound B]" reported_result=95%
molecule="CCCOCCN(C(=O)CCl)c1c(CC)cccc1CC [Compound D]" reported_result=100%

Continue with the molecule presented below.
GET inhibition at 750 g/ha where system = Monochoria vaginalis and item = CCCCOc1cccc(CC)c1N(C)C(=O)CCl [Example 1]
100%

* * *

Parameter inhibition at 375 g/ha: see the listing below.
System: Cyperus serotinus
Assay: Field transplant rice test, applied 9 DAT, CS
Assay type: in vivo
Details: Cyperus serotinus, 216 h, 0.375 Kg/Ha, 7 WAT, read-out: Percent Inhibition, CS
State just the number; it will be interpreted in %.

In the examples that follow, each entry is paired with its recorded inhibition at 375 g/ha.
structure_notation=CCCOCCN(C(=O)CCl)c1c(CC)cccc1CC reported_result=67
structure_notation=CCCCOCN(C(=O)CCl)c1c(CC)cccc1CC reported_result=67
structure_notation=CCCCOCN(C(=O)CCl)c1c(C)cccc1C(C)(C)C reported_result=43
structure_notation=CCCCOc1cccc(CC)c1N(C)C(=O)CCl reported_result=97

GET inhibition at 375 g/ha where system = Cyperus serotinus and item = CCCCOCCN(C(=O)CCl)c1c(CC)cccc1CC
77

* * *

System: Monochoria vaginalis
Experiment: Field transplant rice test, applied 9 DAT, MV
Assay type: in vivo
Settings: Pontederia vaginalis, 216 h, 3.0 Kg/Ha, 5 WAT, read-out: Percent Inhibition, MV
Parameter inhibition at 3000 g/ha: see the listing below.
State just the number; it will be interpreted in %.

molecule="CCCOCCN(C(=O)CCl)c1c(CC)cccc1CC [Compound D]" unit_info=% reported_result=100
molecule="CCCCOCN(C(=O)CCl)c1c(CC)cccc1CC [Compound A]" unit_info=% reported_result=100
molecule="CCCCOCCN(C(=O)CCl)c1c(CC)cccc1CC [Compound B]" unit_info=% reported_result=100

GET inhibition at 3000 g/ha where system = Monochoria vaginalis and item = CCCCOCN(C(=O)CCl)c1c(C)cccc1C(C)(C)C [Compound C]
100

GET inhibition at 3000 g/ha where system = Monochoria vaginalis and item = CCCCOc1cccc(CC)c1N(C)C(=O)CCl [Example 1]
100

* * *

Test system: Rice
Test: Field transplant rice test, applied 0 DAT, rice injury
Type: in vivo
Conditions: Oryza sativa, 0 h, 1.5 Kg/Ha, 4 WAT, read-out: Percent Inhibition, Rice
// label = Yes if inhibition at 1500 g/ha is not less than 3%, otherwise No

Form field: inhibition at 1500 g/ha at least 3%? Entry: CCCCOCN(C(=O)CCl)c1c(C)cccc1C(C)(C)C
Yes

Form field: inhibition at 1500 g/ha at least 3%? Entry: CCCCOCN(C(=O)CCl)c1c(CC)cccc1CC
Yes

Form field: inhibition at 1500 g/ha at least 3%? Entry: CCCCOc1cccc(CC)c1N(C)C(=O)CCl
No

Form field: inhibition at 1500 g/ha at least 3%? Entry: CCCOCCN(C(=O)CCl)c1c(CC)cccc1CC
Yes

* * *

Test system: Cyperus serotinus
Experiment: Field transplant rice test, applied 9 DAT, CS
Type: in vivo
Details: Cyperus serotinus, 216 h, 3.0 Kg/Ha, 7 WAT, read-out: Percent Inhibition, CS
Parameter inhibition at 3000 g/ha: see the listing below.

structure_notation=CCCCOCCN(C(=O)CCl)c1c(CC)cccc1CC measure_name="inhibition at 3000 g/ha" reported_result=65%
structure_notation=CCCOCCN(C(=O)CCl)c1c(CC)cccc1CC measure_name="inhibition at 3000 g/ha" reported_result=100%

Please list inhibition at 3000 g/ha recorded for the molecule CCCCOc1cccc(CC)c1N(C)C(=O)CCl
100%

Please list inhibition at 3000 g/ha recorded for the molecule CCCCOCN(C(=O)CCl)c1c(C)cccc1C(C)(C)C
100%

Please list inhibition at 3000 g/ha recorded for the molecule CCCCOCN(C(=O)CCl)c1c(CC)cccc1CC
100%
